Listing: TGI of selected molecules
System: NCI-H522 lung
Assay: NCI tumour cell line growth inhibition, 48 h
Dear colleague, please return just the value in µM, with no unit written.

1. CCCC1c2c(ccc3ccccc23)Oc2ccc3ccccc3c21 :: 80.4
2. Cc1sc2nc3n(sc4nc5sc(C)c(C)c5c(=O)n43)c(=O)c2c1C :: 32
3. CC(=O)OC1C(=O)C(O)C(C)OC1O[C@@H]1C[C@@]2(C)[C@@H]3CC=C4[C@@H](C[C@H](O)C(=O)C4(C)C)[C@]3(C)C(=O)C[C@]2(C)[C@H]1[C@@](C)(O)C(=O)/C=C/C(C)(C)O (stereo partly specified) :: 6.12

Exercise: Find the recorded TGI belonging to CCCCCCCCCCC[N+]1(Cc2ccccc2)CC2CCN(Cc3ccccc3)CC2C1 (stereo unspecified) and report it.
Key: 1.29

Exercise: Can you handle `Clc1ccc(Cl)c2[s+]snc12` next?
Key: 44

Exercise: Can you handle C=C(C)C(=O)O[C@H]1CC2(CO)O[C@@H]2CC/C(COC(C)=O)=C/C2OC(=O)C(=C)[C@@H]21 (stereo partly specified) next?
Key: 31.6

Exercise: Can you handle `CCOC(=O)CC(=O)Sc1ccccc1` next?
Key: 24.3

Exercise: Can you handle `Nc1ccccc1C#C/C=C\C#Cc1ccccc1C(F)(F)F` next?
Key: 34.3

Exercise: Can you handle CN1CCCC(OC(=O)c2cc3cc(CCl)ccc3oc2=O)C1 (stereo unspecified) next?
Key: 34.7
